# tested system: hTLR7 (Homo sapiens)
# Construct: expressed in transfected cells; host or cells: HEK-Blue hTLR7 reporter cell line
# Sequence (Q9NYK1 27-1049): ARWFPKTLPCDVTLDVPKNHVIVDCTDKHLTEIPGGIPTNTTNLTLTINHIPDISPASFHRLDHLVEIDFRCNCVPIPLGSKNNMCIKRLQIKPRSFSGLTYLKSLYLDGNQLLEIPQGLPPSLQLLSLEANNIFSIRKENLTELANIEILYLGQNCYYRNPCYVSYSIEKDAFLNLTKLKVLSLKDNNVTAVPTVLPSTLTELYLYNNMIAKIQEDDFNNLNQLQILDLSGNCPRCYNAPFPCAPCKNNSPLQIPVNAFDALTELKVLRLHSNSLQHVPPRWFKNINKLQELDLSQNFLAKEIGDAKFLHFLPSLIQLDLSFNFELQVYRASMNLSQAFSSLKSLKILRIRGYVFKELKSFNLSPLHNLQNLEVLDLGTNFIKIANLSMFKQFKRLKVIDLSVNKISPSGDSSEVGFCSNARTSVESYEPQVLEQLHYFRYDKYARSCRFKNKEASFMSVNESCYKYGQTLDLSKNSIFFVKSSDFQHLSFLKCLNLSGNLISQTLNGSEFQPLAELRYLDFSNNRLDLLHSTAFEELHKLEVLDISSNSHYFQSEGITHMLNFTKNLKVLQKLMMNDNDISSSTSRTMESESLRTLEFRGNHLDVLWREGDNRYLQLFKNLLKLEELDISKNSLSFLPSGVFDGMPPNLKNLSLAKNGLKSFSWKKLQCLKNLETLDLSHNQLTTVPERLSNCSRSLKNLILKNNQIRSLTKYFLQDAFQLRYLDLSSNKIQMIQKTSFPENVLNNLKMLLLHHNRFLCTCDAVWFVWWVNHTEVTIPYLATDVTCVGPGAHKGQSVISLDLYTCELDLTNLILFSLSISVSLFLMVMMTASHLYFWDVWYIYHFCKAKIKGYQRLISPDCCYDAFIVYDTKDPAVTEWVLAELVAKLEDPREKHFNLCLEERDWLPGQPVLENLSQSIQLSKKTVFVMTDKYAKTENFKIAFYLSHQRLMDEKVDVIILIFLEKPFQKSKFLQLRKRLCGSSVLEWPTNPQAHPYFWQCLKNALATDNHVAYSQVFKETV
# protocol summary: HEK-Blue hTLR7 reporter assay (NF-kB-induced SEAP, Quanti-Blue)
# Format: cell-based
# protocol conditions: Table 19, TLR7, drug-linkers with PEG shielding; read-out: EC50
measured attribute: EC50 (nM)

smiles notation	tested system	readout unit	EC50
CCCCCC(=O)Nc1nc(OCCCC)nc2c1[nH]c(=O)n2Cc1ccc(CN2CCC(CCNC(=O)CON)CC2)cc1	hTLR7 (Homo sapiens)	nM	48.3
CCCCOc1nc(NC(C)=O)c2[nH]c(=O)n(Cc3ccc(CN4CCC(C5CCNCC5)CC4)cc3)c2n1	hTLR7 (Homo sapiens)	nM	29.6
CCCCOc1nc(N)c2[nH]c(=O)n(Cc3ccc(CN4CCC(CCNC(=O)[C@H](Cc5ccc(O[C@@H]6O[C@H](CO)[C@@H](O)[C@H](O)[C@H]6O)cc5)NC(=O)CON)CC4)cc3)c2n1	hTLR7 (Homo sapiens)	nM	158

A. CCCCOc1nc(N)c2[nH]c(=O)n(Cc3ccc(CN4CCC(CCNC(=O)CCN5C(=O)C=CC5=O)CC4)cc3)c2n1
B. CCCCOc1nc(N)c2[nH]c(=O)n(Cc3ccc(CN4CCC(CCNC(=O)[C@@H](N)Cc5ccc(O)cc5)CC4)cc3)c2n1
[ask] Please compare: A and B . Report which one has the smaller EC50 value. Write down the label of the entry you select.
[reply] B
